# IC20 listing for each entry below
Biological target: UniProtKB Q12809
Sequence (Q12809 whole entry): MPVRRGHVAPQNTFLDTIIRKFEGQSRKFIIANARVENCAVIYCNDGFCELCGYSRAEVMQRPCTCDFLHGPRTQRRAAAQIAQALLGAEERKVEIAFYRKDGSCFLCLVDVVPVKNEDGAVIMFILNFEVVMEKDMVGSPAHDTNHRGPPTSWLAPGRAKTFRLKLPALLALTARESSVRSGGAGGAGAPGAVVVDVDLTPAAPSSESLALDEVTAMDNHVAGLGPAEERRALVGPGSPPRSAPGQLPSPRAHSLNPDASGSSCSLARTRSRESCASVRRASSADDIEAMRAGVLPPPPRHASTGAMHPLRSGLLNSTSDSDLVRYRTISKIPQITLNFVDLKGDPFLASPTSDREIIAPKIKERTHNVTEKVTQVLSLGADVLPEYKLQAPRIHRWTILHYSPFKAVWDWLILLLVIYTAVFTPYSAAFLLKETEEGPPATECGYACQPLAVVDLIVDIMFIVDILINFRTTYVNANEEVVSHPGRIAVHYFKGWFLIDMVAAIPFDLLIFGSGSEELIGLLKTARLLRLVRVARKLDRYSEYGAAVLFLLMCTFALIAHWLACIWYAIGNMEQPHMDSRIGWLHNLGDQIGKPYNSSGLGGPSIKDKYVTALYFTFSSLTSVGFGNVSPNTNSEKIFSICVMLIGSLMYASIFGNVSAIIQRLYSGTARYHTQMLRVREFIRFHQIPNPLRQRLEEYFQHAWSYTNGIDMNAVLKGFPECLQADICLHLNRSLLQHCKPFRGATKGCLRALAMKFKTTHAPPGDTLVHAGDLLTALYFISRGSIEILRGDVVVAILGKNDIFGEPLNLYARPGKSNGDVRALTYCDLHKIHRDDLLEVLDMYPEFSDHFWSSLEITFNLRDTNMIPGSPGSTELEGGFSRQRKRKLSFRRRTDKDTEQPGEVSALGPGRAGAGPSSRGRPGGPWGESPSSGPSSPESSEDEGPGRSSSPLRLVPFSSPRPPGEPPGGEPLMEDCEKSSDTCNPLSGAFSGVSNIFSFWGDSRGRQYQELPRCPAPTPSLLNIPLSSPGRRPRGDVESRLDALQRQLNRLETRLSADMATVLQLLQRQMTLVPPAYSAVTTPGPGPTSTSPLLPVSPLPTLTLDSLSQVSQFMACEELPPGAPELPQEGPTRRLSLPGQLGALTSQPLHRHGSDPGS
Assay: hERG channel inhibition assay (patch-clamp, CHOhERG cells)
Type: cell-based
Settings: human, CHO cells stably expressing hERG (CHOhERG)

In the examples that follow, each entry is paired with its recorded IC20.
molecule: COc1cc(F)ccc1-n1ncc2c(N3C[C@@H]4C[C@H]3C(=O)N(CCCN3CCOCC3)CCCc3c5c(cccc5nn3C)-c3cccc(n3)N4)ncnc21 [Example 43]
IC20: > 10 µM

molecule: CN1CCCc2c3c(cccc3nn2C)-c2ccnc(n2)O[C@H]2C[C@@H](C1=O)N(c1ncnc3c1cnn3-c1ccc(F)cc1F)C2 [Example 11]
IC20: > 10 µM

molecule: Cn1nc2cccc3c2c1CCCNC(=O)[C@@H]1C[C@@H](CN1c1ncnc2c1cnn2-c1ccc(F)cc1F)Oc1ccnc-3c1 [Example 10]
IC20: 8.2 µM

molecule: CN1CCCc2c3c(cccc3nn2C)-c2cccc(n2)O[C@H]2C[C@@H](C1=O)N(c1ncnc3c1cnn3-c1ccc(F)cc1F)C2 [Example 9]
IC20: > 10 µM

Please turn your attention to the following entry.
Lookup: Field request: IC20 | item: COc1cc(F)ccc1-n1ncc2c(N3C[C@@H]4C[C@H]3C(=O)N(C)CCCc3c5c(cccc5nn3C)-c3ccnc(n3)N4)ncnc21 [Example 6]
Found: > 10 µM
